assay: Preliminary assessment of solubility in solvents (24 h); format: physicochemical; conditions: organic solvent or mixture, thermodynamic from solid; in Propylene glycol; 24 h stirring at room temperature; read-out: Solubility (mg/ml) at 24 h

Molecule	solubility at 24 h
CO[C@H]1/C=C/O[C@@]2(C)Oc3c(C)c(O)c4c(c3C2=O)C2=NC3(CCN(CC(C)C)CC3)NC2=C(NC(=O)/C(C)=C\C=C\[C@H](C)[C@H](O)[C@@H](C)[C@@H](O)[C@@H](C)[C@H](OC(C)=O)[C@@H]1C)C4=O [rifabutin]	≥ 92 mg/mL

----------
test: Preliminary assessment of solubility in solvents (24 h); format: physicochemical; conditions: organic solvent or mixture, thermodynamic from solid; in N-Methyl-2-pyrrolidone (NMP); 24 h stirring at room temperature; read-out: Solubility (mg/ml) at 24 h

Substance Smiles	solubility at 24 h
CO[C@H]1/C=C/O[C@@]2(C)Oc3c(C)c(O)c4c(c3C2=O)C2=NC3(CCN(CC(C)C)CC3)NC2=C(NC(=O)/C(C)=C\C=C\[C@H](C)[C@H](O)[C@@H](C)[C@@H](O)[C@@H](C)[C@H](OC(C)=O)[C@@H]1C)C4=O	≥ 190 mg/mL

----------
Assay: Preliminary assessment of solubility in solvents (24 h)
Format: physicochemical
Conditions: organic solvent or mixture, thermodynamic from solid; in Dimethylacetamide (DMA); 24 h stirring at room temperature; read-out: Solubility (mg/ml) at 24 h
Procedure: After 24 h stirring at room temperature, samples were centrifuged, and the supernatant analyzed by HPLC.

Substance Smiles	solubility at 24 h
CO[C@H]1/C=C/O[C@@]2(C)Oc3c(C)c(O)c4c(c3C2=O)C2=NC3(CCN(CC(C)C)CC3)NC2=C(NC(=O)/C(C)=C\C=C\[C@H](C)[C@H](O)[C@@H](C)[C@@H](O)[C@@H](C)[C@H](OC(C)=O)[C@@H]1C)C4=O	≥ 204 mg/mL

----------
test: Preliminary assessment of solubility in solvents (24 h); type: physicochemical; conditions: aqueous buffer, thermodynamic from solid; in Phosphate buffer pH 6 (USP); 24 h stirring at room temperature; read-out: Solubility (mg/ml) at 24 h
Observable: solubility at 24 h (mg/mL)

Substance Smiles	Observable	Measured Result
CO[C@H]1/C=C/O[C@@]2(C)Oc3c(C)c(O)c4c(c3C2=O)C2=NC3(CCN(CC(C)C)CC3)NC2=C(NC(=O)/C(C)=C\C=C\[C@H](C)[C@H](O)[C@@H](C)[C@@H](O)[C@@H](C)[C@H](OC(C)=O)[C@@H]1C)C4=O	solubility at 24 h	0.3

----------
assay: Preliminary assessment of solubility in solvents (24 h); format: physicochemical; details: organic solvent or mixture, thermodynamic from solid; in Glycerol; 24 h stirring at room temperature; read-out: Solubility (mg/ml) at 24 h
Observable: solubility at 24 h (mg/mL)

Substance Smiles	Measured Result
CO[C@H]1/C=C/O[C@@]2(C)Oc3c(C)c(O)c4c(c3C2=O)C2=NC3(CCN(CC(C)C)CC3)NC2=C(NC(=O)/C(C)=C\C=C\[C@H](C)[C@H](O)[C@@H](C)[C@@H](O)[C@@H](C)[C@H](OC(C)=O)[C@@H]1C)C4=O	0.4

----------
Test: Preliminary assessment of solubility in solvents (24 h)
Assay type: physicochemical
Conditions: aqueous with cosolvent or surfactant or cyclodextrin, thermodynamic from solid; in Povidone K12 (5% w/w in water); 24 h stirring at room temperature; read-out: Solubility (mg/ml) at 24 h
Method: After 24 h stirring at room temperature, samples were centrifuged, and the supernatant analyzed by HPLC.
Observable: solubility at 24 h

Substance Smiles	Measured Result
CO[C@H]1/C=C/O[C@@]2(C)Oc3c(C)c(O)c4c(c3C2=O)C2=NC3(CCN(CC(C)C)CC3)NC2=C(NC(=O)/C(C)=C\C=C\[C@H](C)[C@H](O)[C@@H](C)[C@@H](O)[C@@H](C)[C@H](OC(C)=O)[C@@H]1C)C4=O	0.5 mg/mL

----------
assay: Preliminary assessment of solubility in solvents (24 h); format: physicochemical; settings: organic solvent or mixture, thermodynamic from solid; in Dimethyl isosorbide (DMI); 24 h stirring at room temperature; read-out: Solubility (mg/ml) at 24 h

Compound	solubility at 24 h
CO[C@H]1/C=C/O[C@@]2(C)Oc3c(C)c(O)c4c(c3C2=O)C2=NC3(CCN(CC(C)C)CC3)NC2=C(NC(=O)/C(C)=C\C=C\[C@H](C)[C@H](O)[C@@H](C)[C@@H](O)[C@@H](C)[C@H](OC(C)=O)[C@@H]1C)C4=O [rifabutin]	≥ 245 mg/mL

----------
Assay: Preliminary assessment of solubility in solvents (24 h)
Assay type: physicochemical
Conditions: aqueous with cosolvent or surfactant or cyclodextrin, thermodynamic from solid; in Tween 80 (1% w/w in water); 24 h stirring at room temperature; read-out: Solubility (mg/ml) at 24 h
Experimental: After 24 h stirring at room temperature, samples were centrifuged, and the supernatant analyzed by HPLC.

Substance Smiles	Value Units	solubility at 24 h
CO[C@H]1/C=C/O[C@@]2(C)Oc3c(C)c(O)c4c(c3C2=O)C2=NC3(CCN(CC(C)C)CC3)NC2=C(NC(=O)/C(C)=C\C=C\[C@H](C)[C@H](O)[C@@H](C)[C@@H](O)[C@@H](C)[C@H](OC(C)=O)[C@@H]1C)C4=O	mg/mL	1.3

----------
test: Preliminary assessment of solubility in solvents (24 h); type: physicochemical; settings: aqueous buffer, thermodynamic from solid; in Phosphate buffer pH 8 (USP); 24 h stirring at room temperature; read-out: Solubility (mg/ml) at 24 h
Observable: solubility at 24 h (mg/mL)

Molecule	Observable	Measured Result
CO[C@H]1/C=C/O[C@@]2(C)Oc3c(C)c(O)c4c(c3C2=O)C2=NC3(CCN(CC(C)C)CC3)NC2=C(NC(=O)/C(C)=C\C=C\[C@H](C)[C@H](O)[C@@H](C)[C@@H](O)[C@@H](C)[C@H](OC(C)=O)[C@@H]1C)C4=O [rifabutin]	solubility at 24 h	0.2

----------
assay: Preliminary assessment of solubility in solvents (24 h); type: physicochemical; settings: aqueous buffer, thermodynamic from solid; in Borate buffer pH 10 (USP); 24 h stirring at room temperature; read-out: Solubility (mg/ml) at 24 h
Observable: solubility at 24 h (mg/mL)

Substance Smiles	Observable	Value Units	Measured Result
CO[C@H]1/C=C/O[C@@]2(C)Oc3c(C)c(O)c4c(c3C2=O)C2=NC3(CCN(CC(C)C)CC3)NC2=C(NC(=O)/C(C)=C\C=C\[C@H](C)[C@H](O)[C@@H](C)[C@@H](O)[C@@H](C)[C@H](OC(C)=O)[C@@H]1C)C4=O	solubility at 24 h	mg/mL	1.9

----------
assay: Preliminary assessment of solubility in solvents (24 h); format: physicochemical; details: aqueous buffer, thermodynamic from solid; in Acetate buffer pH 4 (USP); 24 h stirring at room temperature; read-out: Solubility (mg/ml) at 24 h

Compound	solubility at 24 h
CO[C@H]1/C=C/O[C@@]2(C)Oc3c(C)c(O)c4c(c3C2=O)C2=NC3(CCN(CC(C)C)CC3)NC2=C(NC(=O)/C(C)=C\C=C\[C@H](C)[C@H](O)[C@@H](C)[C@@H](O)[C@@H](C)[C@H](OC(C)=O)[C@@H]1C)C4=O [rifabutin]	11.3 mg/mL

----------
Experiment: Preliminary assessment of solubility in solvents (24 h)
Format: physicochemical
Details: organic solvent or mixture, thermodynamic from solid; in Transcutol HP; 24 h stirring at room temperature; read-out: Solubility (mg/ml) at 24 h
Protocol: After 24 h stirring at room temperature, samples were centrifuged, and the supernatant analyzed by HPLC.

Substance Smiles	solubility at 24 h
CO[C@H]1/C=C/O[C@@]2(C)Oc3c(C)c(O)c4c(c3C2=O)C2=NC3(CCN(CC(C)C)CC3)NC2=C(NC(=O)/C(C)=C\C=C\[C@H](C)[C@H](O)[C@@H](C)[C@@H](O)[C@@H](C)[C@H](OC(C)=O)[C@@H]1C)C4=O	≥ 206 mg/mL
